Target of assay: αvβ3 protein (Homo sapiens, UniProt P05106+P06756)
Construct: CC1019
Sequence (P06756 31-889 limits assumed): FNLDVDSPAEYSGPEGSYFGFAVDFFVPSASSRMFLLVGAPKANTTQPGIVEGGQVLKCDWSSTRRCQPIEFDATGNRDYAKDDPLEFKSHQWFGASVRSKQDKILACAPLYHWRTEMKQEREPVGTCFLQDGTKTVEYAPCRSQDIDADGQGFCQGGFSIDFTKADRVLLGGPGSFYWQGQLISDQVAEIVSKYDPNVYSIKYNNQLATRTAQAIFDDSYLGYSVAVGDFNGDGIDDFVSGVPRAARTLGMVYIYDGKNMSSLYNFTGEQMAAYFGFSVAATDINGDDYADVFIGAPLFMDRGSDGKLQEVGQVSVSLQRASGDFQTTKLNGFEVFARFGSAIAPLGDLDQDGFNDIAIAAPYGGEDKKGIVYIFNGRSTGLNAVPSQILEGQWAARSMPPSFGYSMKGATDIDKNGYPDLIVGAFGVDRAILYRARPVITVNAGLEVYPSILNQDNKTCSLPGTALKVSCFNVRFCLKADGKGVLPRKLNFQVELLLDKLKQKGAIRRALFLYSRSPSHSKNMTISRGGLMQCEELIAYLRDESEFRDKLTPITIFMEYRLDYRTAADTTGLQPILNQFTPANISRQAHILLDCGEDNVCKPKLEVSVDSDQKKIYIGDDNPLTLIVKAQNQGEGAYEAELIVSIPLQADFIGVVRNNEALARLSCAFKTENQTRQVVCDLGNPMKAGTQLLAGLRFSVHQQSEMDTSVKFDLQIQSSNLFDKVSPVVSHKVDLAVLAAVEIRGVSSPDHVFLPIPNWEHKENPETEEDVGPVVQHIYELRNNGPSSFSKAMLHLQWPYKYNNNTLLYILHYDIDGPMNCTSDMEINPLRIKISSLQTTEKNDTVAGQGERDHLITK
Sequence (P06756 891-1048 partner limits assumed): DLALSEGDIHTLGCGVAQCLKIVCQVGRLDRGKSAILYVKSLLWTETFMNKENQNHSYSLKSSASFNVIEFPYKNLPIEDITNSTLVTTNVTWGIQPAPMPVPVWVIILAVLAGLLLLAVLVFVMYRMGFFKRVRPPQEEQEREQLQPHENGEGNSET
Sequence (P05106 27-788): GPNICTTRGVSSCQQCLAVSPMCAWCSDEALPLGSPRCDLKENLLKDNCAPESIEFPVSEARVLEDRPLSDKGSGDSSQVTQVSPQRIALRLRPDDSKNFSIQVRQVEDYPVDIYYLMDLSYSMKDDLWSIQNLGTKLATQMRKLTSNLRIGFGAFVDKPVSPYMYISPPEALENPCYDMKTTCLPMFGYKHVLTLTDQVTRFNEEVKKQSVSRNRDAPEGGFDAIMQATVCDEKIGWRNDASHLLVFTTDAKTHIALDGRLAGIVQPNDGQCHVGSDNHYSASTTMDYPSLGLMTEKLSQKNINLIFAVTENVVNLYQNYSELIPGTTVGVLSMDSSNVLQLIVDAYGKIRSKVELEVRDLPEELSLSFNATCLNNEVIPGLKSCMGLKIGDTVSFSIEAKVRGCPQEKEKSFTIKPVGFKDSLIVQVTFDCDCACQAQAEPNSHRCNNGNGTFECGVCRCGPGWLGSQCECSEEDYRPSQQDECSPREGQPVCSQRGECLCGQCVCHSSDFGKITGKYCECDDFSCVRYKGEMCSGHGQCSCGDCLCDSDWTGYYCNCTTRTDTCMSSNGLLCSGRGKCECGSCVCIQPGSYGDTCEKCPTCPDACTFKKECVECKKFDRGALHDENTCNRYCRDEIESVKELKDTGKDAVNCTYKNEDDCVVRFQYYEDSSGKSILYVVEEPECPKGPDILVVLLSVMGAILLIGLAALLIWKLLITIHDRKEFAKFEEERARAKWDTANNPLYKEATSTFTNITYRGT
Method summary: αvβ3 protein binding test (fluorescence polarization, FITC-Echistatin)
Measurement setup: inhibition of binding of Echistatin and αvβ3 protein, 37° C., 30 minutes
Structures can show the parent of a compound that is named as a salt.
Reported property: IC50 (nM)

> print(dat)
                                   molecule  number
1  CNc1cccc(CCOc2ccc3c(c2)CN(CC(F)(F)F)C(=O)C(CC(=O)O)C3)n1 (racemic) [Compund A, reference compound]     7.1
2  O=C(O)CC1Cc2ccc(OCCc3cn4c(n3)NCCC4)cc2CN(CC(F)(F)F)C1=O (centres unmarked) [Example 2, trifluoroacetate]     1.2

a. O=C(O)CC1Cc2ccc(OCCc3cn4c(n3)NCCN4)cc2CN(CC(F)(F)F)C1=O (centres unmarked) [Example 3, trifluoroacetate]
b. O=C(O)C[C@@H]1Cc2ccc(OCCCNc3ccccn3)cc2CN(CC(F)(F)F)C1=O [Compund B, reference compound]
c. O=C(O)C[C@@H]1Cc2ccc(OCCc3cn4c(n3)NCCC4)cc2CN(CC(F)(F)F)C1=O
Task: Put the items in order so that reported IC50 rises from first to last. Put the labels in the order asked and list them.
Result: c, a, b
